target_desc: CD19 (UniProt P15391)
protocol_notes: cell-based or functional assay
Below: a set of entries, each annotated with reported log10 Average MFI Difference (MFI of ON - MFI of OFF) (BFP reporter; no CAR stimulation).
recorded_endpoint: log10 Average MFI Difference (MFI of ON - MFI of OFF) (BFP reporter; no CAR stimulation) (log10 of the value in MFI)

{"substance": "hingeNotch STS variant with DAG1 STS (RKKRKGK) (receptor)", "test_result": 3.40}
{"substance": "hingeNotch STS variant with CSF1R STS (KYKQKPK) (receptor)", "test_result": 2.90}
{"substance": "hingeNotch STS variant with GHR STS (KQQRIK) (receptor)", "test_result": 2.15}
{"substance": "hingeNotch STS variant with Notch 2 STS (KRKRKH) (receptor)", "test_result": 3.10}
{"substance": "hingeNotch STS variant with Notch 4 STS (RRRREH) (receptor)", "test_result": 3.01}
{"substance": "hingeNotch STS variant with KL STS (KKGRRSYK) (receptor)", "test_result": 2.94}
{"substance": "hingeNotch STS variant with PTPRF STS (KRKRTH) (receptor)", "test_result": 3.07}
{"substance": "hingeNotch STS variant with KCNE3 STS (RSRKVDKR) (receptor)", "test_result": 2.99}

Where do the numbers come from? From patent US20220133797A1.
